Test system: α1 adrenergic receptors (rat cerebral cortex)
protocol-details: Radioligand binding assay, adrenergic α1 receptors
test-context: test compound 1×10^−6 M
Kindly supply the reported α1 [%] values for the records listed here.
// return numeric value only (unit: %, not printed)

The value of α1 [%] measured for the compound COc1ccc2cc(S(=O)(=O)N[C@H]3CCN(CCCc4noc5cc(F)ccc45)C3)ccc2c1 turned out to be 79

Item: O=S(=O)(NCC1CCN(CCOc2cccc3ccccc23)C1)c1cccc2ccccc12 (stereo not shown) | α1 [%]: 25

Record O=S(=O)(NCC1CN(CCOc2cccc3ccccc23)C1)c1ccc2ccccc2c1 . Reported α1 [%]: 53

The compound O=S(=O)(NC1CCN(CCCc2noc3cc(F)ccc23)C1)c1cnc2ccccn12 (stereo not shown) showed α1 [%] equal to 84

* * *

measurement-target: D2 dopaminergic receptors (Homo sapiens, UniProt P14416)
Sequence (P14416 whole entry): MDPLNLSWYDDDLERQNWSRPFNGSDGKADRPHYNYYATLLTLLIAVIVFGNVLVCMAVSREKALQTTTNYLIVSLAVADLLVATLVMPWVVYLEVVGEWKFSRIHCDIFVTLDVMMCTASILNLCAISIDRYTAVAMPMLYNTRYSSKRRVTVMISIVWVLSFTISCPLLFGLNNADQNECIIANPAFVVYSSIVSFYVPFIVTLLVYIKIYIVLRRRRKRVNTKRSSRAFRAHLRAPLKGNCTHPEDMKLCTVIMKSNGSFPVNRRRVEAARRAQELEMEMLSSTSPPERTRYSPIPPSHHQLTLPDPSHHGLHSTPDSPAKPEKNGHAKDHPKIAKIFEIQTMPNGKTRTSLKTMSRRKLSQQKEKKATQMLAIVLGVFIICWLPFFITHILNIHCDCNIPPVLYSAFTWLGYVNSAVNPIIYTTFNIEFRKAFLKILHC
protocol-details: Cellular functional assay, D2 dopaminergic receptors
Type: cell-based
test-context: antagonism, D2S (h), HEK-293 cells, stimulus dopamine (30 nM)
For each entry below, report its D2 antag [%] value.
Quick reminder: number only, in %, skip the unit.

So, O=S(=O)(NC1CCN(CCCc2noc3cc(F)ccc23)C1)c1cc2ccccc2o1 (stereo not shown) [Compound 216] ? Its D2 antag [%] was 86

GET /value?item= O=S(=O)(NCC1CN(CCCc2noc3cc(F)ccc23)C1)c1ccc2ccccc2c1 [Compound 134] &field=D2 antag [%] returns 47

Noted for O=S(=O)(N[C@H]1CCN(CCCc2noc3cc(F)ccc23)C1)c1csc2ccccc12 [Compound 225] : its D2 antag [%] reads 52

Value of measured D2 antag [%] for the entry Cc1cc(S(=O)(=O)NC2CCN(CCCc3noc4cc(F)ccc34)C2)c(C)s1 (stereo not shown) [Compound 221] : 97

* * *

Record form. Attribute: inhibition at 1 µM. Fill in for each entry.
measurement-target: α2C adrenergic receptors (Homo sapiens)
Construct: expressed in transfected cells; host or cells: CHO cells
Sequence (P18825 1-462): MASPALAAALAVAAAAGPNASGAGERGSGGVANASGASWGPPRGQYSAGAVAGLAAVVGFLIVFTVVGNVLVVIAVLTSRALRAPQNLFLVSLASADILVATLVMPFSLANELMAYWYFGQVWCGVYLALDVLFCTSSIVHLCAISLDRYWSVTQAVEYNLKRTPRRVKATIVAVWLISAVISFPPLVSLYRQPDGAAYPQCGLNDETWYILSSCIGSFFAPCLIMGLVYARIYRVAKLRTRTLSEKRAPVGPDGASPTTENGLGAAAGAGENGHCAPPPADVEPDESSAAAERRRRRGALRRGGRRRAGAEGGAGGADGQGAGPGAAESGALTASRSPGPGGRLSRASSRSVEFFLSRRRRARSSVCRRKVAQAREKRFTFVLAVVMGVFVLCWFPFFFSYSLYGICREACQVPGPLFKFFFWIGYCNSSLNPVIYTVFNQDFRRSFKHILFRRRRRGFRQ
protocol-details: Radioligand binding assay, adrenergic α2C receptors
test-context: test compound 1×10^−6 M
Write it as a number; the unit % goes unstated.

inhibition at 1 µM on α2C adrenergic receptors (Homo sapiens) for O=S(=O)(NC1CCN(CCCc2c[nH]c3ccc(Cl)cc23)C1)c1cccc(F)c1 (stereo not shown) is 101

Record O=S(=O)(NC1CCN(CCCc2noc3cc(F)ccc23)C1)c1ccc2cc(Cl)ccc2c1 (stereo not shown) ; system α2C adrenergic receptors (Homo sapiens); inhibition at 1 µM = 89

Bench note, α2C adrenergic receptors (Homo sapiens): Cc1c(S(=O)(=O)N[C@@H]2CCN(CCCc3noc4cc(F)ccc34)C2)sc2ccc(Cl)cc12 , inhibition at 1 µM reads 89

Entry O=S(=O)(NCC1CN(CCCc2noc3cc(F)ccc23)C1)c1cccc2ccccc12 , α2C adrenergic receptors (Homo sapiens) data, inhibition at 1 µM value: 91

Reading of inhibition at 1 µM for O=S(=O)(NCC1CN(CCOc2cccc3c2OCCO3)C1)c1cc2ccccc2o1 with α2C adrenergic receptors (Homo sapiens): 96

// inhibition at 1 µM (α2C adrenergic receptors (Homo sapiens)) for O=S(=O)(NC1CCN(CCCc2noc3cc(F)ccc23)C1)c1ccc2ccccc2c1 (stereo not shown) = 78

O=S(=O)(NC1CCN(CCCc2noc3cc(F)ccc23)C1)c1cc2ccccc2s1 (stereo not shown) tested on α2C adrenergic receptors (Homo sapiens) gave inhibition at 1 µM: 90

// assay α2C adrenergic receptors (Homo sapiens), entry O=S(=O)(NCC1CCN(CCOc2cccc3c2OCCO3)C1)c1ccc2c(c1)CCO2 (stereo not shown) , inhibition at 1 µM value = 98

Summary line: O=S(=O)(NC1CCN(CCCc2noc3cc(F)ccc23)C1)c1cc2ccccc2o1 (stereo not shown) , α2C adrenergic receptors (Homo sapiens), reported inhibition at 1 µM = 80

The reported inhibition at 1 µM value, α2C adrenergic receptors (Homo sapiens), for Cc1cc(S(=O)(=O)N[C@H]2CCN(CCCc3noc4cc(F)ccc34)C2)c(C)s1 reads 60

Item: Cc1ccc2sc(S(=O)(=O)N[C@H]3CCN(CCCc4noc5cc(F)ccc45)C3)cc2c1 | System: α2C adrenergic receptors (Homo sapiens) | inhibition at 1 µM: 98

inhibition at 1 µM of COc1ccc2cc(S(=O)(=O)N[C@@H]3CCN(CCCc4noc5cc(F)ccc45)C3)ccc2c1 , assay on α2C adrenergic receptors (Homo sapiens), is 92

The recorded inhibition at 1 µM with α2C adrenergic receptors (Homo sapiens) for O=S(=O)(NC1CCN(CCCc2c[nH]c3ccc(Cl)cc23)C1)c1cccc(Cl)c1 (stereo not shown) was 105

Entry Cc1cc(S(=O)(=O)NCC2CCN(CCOc3cccc4c3OCCO4)C2)c(C)s1 (stereo not shown) , tested on α2C adrenergic receptors (Homo sapiens), has a reported inhibition at 1 µM of 94

CC(C)(C)c1ccc(S(=O)(=O)NCC2CN(CCOc3cccc4c3OCCO4)C2)cc1 tested on α2C adrenergic receptors (Homo sapiens) gave inhibition at 1 µM: 96

Noted inhibition at 1 µM for O=S(=O)(NC1CCN(CCCc2c[nH]c3ccc(F)cc23)C1)c1cccc2ccccc12 (stereo not shown) , tested on α2C adrenergic receptors (Homo sapiens): 96
